Recorded Kd for the following binders
- Experimental Target: T1, AAV9P31 capsid (adeno-associated virus 9 variant with the 7-mer WPTSYDA inserted in VP3 VR-VIII) (adeno-associated virus 9, UniProt Q6JC40 1-736, WPTSYDA inserted between Q588 and A589)
- T1 construct: Assembled icosahedral virus particle carrying a GFP genome; capsids made from a RepCap plasmid usually hold VP1, VP2 and VP3 (surmise); also called AAV9P31 particles; AAV9P31 virion; source: HEK293T, triple-plasmid transfection, purified (iodixanol gradient ultracentrifugation)
- Procedure Details: SPR; BIAcore 8K; AAV9P31 particles immobilised on a CM5 chip by amide coupling (sodium acetate pH 4.0); WT or mutated Car4 proteins flowed over at 30 ul/min, 25 °C, PBST; regeneration with 10 mM glycine pH 2.0
- Condition Set: both partners purified
Output spec: scalar in µM, unitless text.

Incoming: Quick one: Kd for Car4 (22-277) V72S (mouse residue changed to its hCar4 counterpart) (receptor, Mus musculus, UniProt Q64444 22-277, looked up, carbonic anhydrase IV (Car4), Mus musculus, residues 22-277; also called V72S_(Car4); source: E. coli BL21 (DE3), purified as the wild type; not shown: GST, N-terminal, cleaved) WCYEIQTKDPRSSCLGPEKWPGACKENQQSPINIVTARTKVNPRLTPFILSGYDQKQQWPIKNNQHTVEMTLGGGACIIGGDLPARYEAVQLHLHWSNGNDNGSEHSIDGRHFAMEMHIVHKKLTSSKEDSKDKFAVLAFMIEVGDKVNKGFQPLVEALPSISKPHSTSTVRESSLQDMLPPSTKMYTYFRYNGSLTTPNCDETVIWTVYKQPIKIHKNQFLEFSKNLYYDEDQKLNMKDNVRPLQPLGKRQVFKS ?
Outgoing: 0.0607

Incoming: Quick one: Kd for Mus musculus carbonic anhydrase IV (Car4), amino acids W22 to S277 (receptor, carbonic anhydrase IV (Car4), Mus musculus, residues 22-277 (W22 to S277); the functional rows use this molecule for Car4; also called wt Car4; truncated Car4 (22-277); not shown: GST, N-terminal, cleaved) WCYEIQTKDPRSSCLGPEKWPGACKENQQSPINIVTARTKVNPRLTPFILVGYDQKQQWPIKNNQHTVEMTLGGGACIIGGDLPARYEAVQLHLHWSNGNDNGSEHSIDGRHFAMEMHIVHKKLTSSKEDSKDKFAVLAFMIEVGDKVNKGFQPLVEALPSISKPHSTSTVRESSLQDMLPPSTKMYTYFRYNGSLTTPNCDETVIWTVYKQPIKIHKNQFLEFSKNLYYDEDQKLNMKDNVRPLQPLGKRQVFKS ?
Outgoing: 0.106

These measurements were taken from paper PMC10868842.
